B1: V170R, A5H7H0 (parent)
chain: MQLQNFLSIVLLVVSGAIAGTVMDHDKIAKLPASGSPLETKFQPQLHIGNGCHSYPAVDAQGNWSGGLKPTGAPSAACKDTSKAQTYVRSATFQGKTALVYAWYMPKDEISTGIGHRHDWEGAVVFLNSDTQQIDGVAASAHGKWRKYPNPGGANIDDTHVKLQYSAEPVINSHALDLTDKGGDLPTLASWEGMGADARAAINERSHWGDANPPIADSLIGSSLSGAWMW

Variants of: B1
Details: Moniliophthora perniciosa; pH 7.2; Thermal; CD; sodium phosphate buffer 4mM; EDTA CaCl2 with ZnCl2 62.5 micro M 120 micro M 120 micro M; structure 3ST1; whole UniProt chain shown
Mark yes (1) for reported change of melting temperature, mutant - wild type (higher = more stable) of -1 °C or greater; mark no (0) for anything smaller.

Examples with answers:
V170R ... no (0)
D119K ... yes (1)
D210S ... no (0)
H116S ... yes (1)

We now examine a further variant.
[ask] Confirm if change of melting temperature, mutant - wild type (higher = more stable) reported for the variant H116A is -1 °C or above.
[reply] yes (1)
